- TEST SUMMARY: folding enthalpy; higher = less favourable; fluorescence melt of hairpins on a sequencing array, two-state fit
- COND: sodium 0.088 M
Respond with 1 (yes) for folding enthalpy values of -30 kcal/mol and above, 0 (no) for values below.

[
  {
    "SEQUENCE ENTRY": "GGGCACGAAAGTGACCCC ((((((....)))..)))",
    "GROUP LABEL": "1 (yes)"
  },
  {
    "SEQUENCE ENTRY": "GGCCTCGAAAGAGTGGCC ((((((....)))..)))",
    "GROUP LABEL": "0 (no)"
  },
  {
    "SEQUENCE ENTRY": "GCCGCGCGAAAGCTGGGC (((..((....))..)))",
    "GROUP LABEL": "1 (yes)"
  },
  {
    "SEQUENCE ENTRY": "GATCCGACCGCGGATC ((((((....))))))",
    "GROUP LABEL": "0 (no)"
  },
  {
    "SEQUENCE ENTRY": "GACACCCGAAAGGGGTC (((.(((....))))))",
    "GROUP LABEL": "1 (yes)"
  },
  {
    "SEQUENCE ENTRY": "GATCCACGAATGGATC ((((((....))))))",
    "GROUP LABEL": "0 (no)"
  },
  {
    "SEQUENCE ENTRY": "GATCGTGGAAACGATC ((((((....))))))",
    "GROUP LABEL": "0 (no)"
  },
  {
    "SEQUENCE ENTRY": "GCCGTGGGAAACTGCGGC ((((..(....)..))))",
    "GROUP LABEL": "1 (yes)"
  },
  {
    "SEQUENCE ENTRY": "GATAGAGGAAACCCTATC (((((.(....).)))))",
    "GROUP LABEL": "1 (yes)"
  },
  {
    "SEQUENCE ENTRY": "GCGTTCCGAAAGGACGC (((.(((....))))))",
    "GROUP LABEL": "0 (no)"
  },
  {
    "SEQUENCE ENTRY": "GCGTTTCGACGC ((((....))))",
    "GROUP LABEL": "1 (yes)"
  },
  {
    "SEQUENCE ENTRY": "GTACCCGAAAGGGAATAC ((((((....)))..)))",
    "GROUP LABEL": "1 (yes)"
  },
  {
    "SEQUENCE ENTRY": "GATCACTTCCGTGATC ((((((....))))))",
    "GROUP LABEL": "0 (no)"
  },
  {
    "SEQUENCE ENTRY": "GTGAAGGGAAACCTTTGC (..((((....))))..)",
    "GROUP LABEL": "1 (yes)"
  },
  {
    "SEQUENCE ENTRY": "GATCCCTTCAGGGATC ((((((....))))))",
    "GROUP LABEL": "0 (no)"
  },
  {
    "SEQUENCE ENTRY": "GCGTATCGAAAGATGCGC (((.(((....))).)))",
    "GROUP LABEL": "0 (no)"
  },
  {
    "SEQUENCE ENTRY": "GTTGATGGAAACATCAAC (((((((....)))))))",
    "GROUP LABEL": "0 (no)"
  },
  {
    "SEQUENCE ENTRY": "GGTGCCGAAAGGCTTACC ((((((....)))..)))",
    "GROUP LABEL": "1 (yes)"
  },
  {
    "SEQUENCE ENTRY": "GCACAGTCGAAAGACTGC (((..(((....))))))",
    "GROUP LABEL": "1 (yes)"
  }
]
